Target: purified DHFR of strain Spn1/1 (Streptococcus pneumoniae serotype 4, UniProt Q54801, E20D/I100L/L135F/P70S/Q81H)
Sequence (Q54801 whole entry E20D/P70S/Q81H/I100L/L135F): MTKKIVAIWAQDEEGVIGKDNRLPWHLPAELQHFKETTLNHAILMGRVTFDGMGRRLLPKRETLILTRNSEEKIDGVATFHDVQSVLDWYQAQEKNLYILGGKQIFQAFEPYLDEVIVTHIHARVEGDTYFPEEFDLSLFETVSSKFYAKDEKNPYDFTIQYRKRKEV
Experiment: biochemical
// values below are reported pIC50
# pIC50 is unitless: minus log10 of the molar concentration; print number only

Examples with their reported pIC50 follow.
CCn1cc(C)c2c(OS(=O)(=O)CC3CC3)cc(Cc3cnc(N)nc3N)cc21 [Example 12b]
8.43
CC(C)S(=O)(=O)Oc1cc(Cc2cnc(N)nc2N)cc2c1ccn2C [Example 5c]
7.08
CCn1cc(CN2CC(C)OC(C)C2)c2c(OS(=O)(=O)C(C)C)cc(Cc3cnc(N)nc3N)cc21 (mixture of isomers) [Example 10d]
6.60
CCn1cc(Br)c2c(OCC3CC3)cc(Cc3cnc(N)nc3N)cc21 [Example 13]
7.38
CCC(C)S(=O)(=O)Oc1cc(Cc2cnc(N)nc2N)cc2c1ccn2C (racemic) [Example 5e]
7.89

Exam item: Consider the compound CCn1ccc2c(OCC3CCC3)cc(Cc3cnc(N)nc3N)cc21 [Example 7f] and give its measured pIC50.
Marked response: 7.39

----------
Molecular target: purified DHFR of strain Spn1/1 (Streptococcus pneumoniae serotype 4, UniProt Q54801, E20D/I100L/L135F/P70S/Q81H)
Experiment: biochemical
pIC50: −log10 of the molar value.
Consider the reported pIC50 of an entry and match it to a band in low bin: < 7; mid bin: ≥ 7 and < 8; high bin: ≥ 8

// below: answered compounds
CCn1c(C)cc2c(OCC3CC3)cc(Cc3cnc(N)nc3N)cc21 [Example 15b]
mid bin
CCn1ccc2c(OCC3OCCO3)cc(Cc3cnc(N)nc3N)cc21
low bin
CCn1ccc2c(OS(=O)(=O)C(C)C)cc(Cc3cnc(N)nc3N)cc21
mid bin
CCC(C)S(=O)(=O)Oc1cc(Cc2cnc(N)nc2N)cc2c1ccn2CC (racemic)
high bin
CCOc1cc(Cc2cnc(N)nc2N)cc2c1ccn2S(=O)(=O)C(C)C
low bin

Exam item: Record CCOc1cc(Cc2cnc(N)nc2N)cc2c1ccn2CC — which class?
Marked response: mid bin

----------
Target: purified DHFR of strain Spn1/1 (Streptococcus pneumoniae serotype 4, UniProt Q54801, E20D/I100L/L135F/P70S/Q81H)
Assay: biochemical
pIC50: −log10 of the molar value.
# label = 1 if pIC50 >= 7 else 0

For orientation, consider the following solved cases.
CC(C)Oc1cc(Cc2cnc(N)nc2N)cc2c1ccn2C
0
CCn1ccc2c(OS(=O)(=O)N(C)C)cc(Cc3cnc(N)nc3N)cc21
1

Please turn your attention to the following entry.
Exam item: Say whether CC(C)CS(=O)(=O)Oc1cc(Cc2cnc(N)nc2N)cc2c1ccn2C shows pIC50 of 7 or more.
Marked response: 1

----------
Entries annotated with measured log10(IC50)
Molecular target: purified DHFR of strain Spn1/1 (Streptococcus pneumoniae serotype 4, UniProt Q54801, E20D/I100L/L135F/P70S/Q81H)
Test: biochemical
# values: log10(IC50), units nM

Below: 3 molecules and their reported log10(IC50).
CCn1ccc2c(OCC3CC3)cc(Cc3cnc(N)nc3N)cc21
1.32
CCOc1cc(Cc2cnc(N)nc2N)cc2c1ccn2C1CCCC1
2.18
CCn1ccc2c(OS(=O)(=O)CC(C)C)cc(Cc3cnc(N)nc3N)cc21
0.18

Exam item: I am curious: what log10(IC50) value has been reported for CCn1cc(CN2CCOCC2)c2c(OS(=O)(=O)CC3CC3)cc(Cc3cnc(N)nc3N)cc21 [Example 10e] ?
Marked response: 0.68

Exam item: What value of measured log10(IC50) is listed for CCn1ccc2c(OCC3CCCO3)cc(Cc3cnc(N)nc3N)cc21 (racemic) ?
Marked response: 1.11

Exam item: For the molecule CCOc1cc(Cc2cnc(N)nc2N)cc(OCC)c1-n1cccc1 [Epiroprim, reference compound] , what log10(IC50) is on record?
Marked response: 2.28

Exam item: Param item = CCC(C)S(=O)(=O)Oc1cc(Cc2cnc(N)nc2N)cc2c1cc(C)n2CC (racemic) [Example 15c] ; retrieve measured log10(IC50).
Marked response: 0.94

----------
IC50 values, listed per item
Target: purified DHFR of strain Spn1/1 (Streptococcus pneumoniae serotype 4, UniProt Q54801, E20D/I100L/L135F/P70S/Q81H)
Assay: biochemical
# answer = value followed by unit

Cn1ccc2c(OCC3CC3)cc(Cc3cnc(N)nc3N)cc21
110 nM
CCn1ccc2c(OC(C)C)cc(Cc3cnc(N)nc3N)cc21
140 nM

Next item in the queue.
Exam item: Quick one: IC50 for CCn1cc(C)c2c(OS(=O)(=O)C(C)C)cc(Cc3cnc(N)nc3N)cc21 [Example 12a] ?
Marked response: 15 nM

----------
Target: purified DHFR of strain Spn1/1 (Streptococcus pneumoniae serotype 4, UniProt Q54801, E20D/I100L/L135F/P70S/Q81H)
Assay: biochemical
Source text: Col. 3: DHFR Spn1/1; μM)—the IC50-values in μM against the purified DHFR of the above strain Spn1/1; of Streptococcus pneumoniae.
property-label: IC50

CCOc1cc(Cc2cnc(N)nc2N)cc2c1ccn2CC1CC1
110 nM

Exam item: # lookup: IC50 of CCn1cc(CN2CCSCC2)c2c(OS(=O)(=O)C(C)C)cc(Cc3cnc(N)nc3N)cc21 [Example 10c]
Marked response: 160 nM

Exam item: // lookup IC50 for CCn1cc(-c2cccc(OC)c2)c2c(OC)cc(Cc3cnc(N)nc3N)cc21 [Example 17b]
Marked response: 4.3 nM

Exam item: // returns reported IC50 for input CCOc1cc(Cc2cnc(N)nc2N)cc2c1ccn2Cc1ccccc1
Marked response: 460 nM

Exam item: # IC50 lookup, item CCn1ccc2c(OC)cc(Cc3cnc(N)nc3N)cc21
Marked response: 410 nM

----------
Target: purified DHFR of strain Spn1/1 (Streptococcus pneumoniae serotype 4, UniProt Q54801, E20D/I100L/L135F/P70S/Q81H)
Assay: biochemical
From the text: Col. 3: DHFR Spn1/1; μM)—the IC50-values in μM against the purified DHFR of the above strain Spn1/1; of Streptococcus pneumoniae.
Reported IC50 by item:
Write down the numeric answer in nM and omit the unit.

CCn1ccc2c(OCC3(C)CC3)cc(Cc3cnc(N)nc3N)cc21
15
CCOc1cc(Cc2cnc(N)nc2N)cc2c1cc(C)n2CC [Example 15a]
56
CCn1ccc2c(OCC(C)C)cc(Cc3cnc(N)nc3N)cc21
29
CCn1ccc2c(OS(=O)(=O)CC3CC3)cc(Cc3cnc(N)nc3N)cc21
1.5
CCOc1cc(Cc2cnc(N)nc2N)cc2c1c(-c1cccc(OC)c1)cn2CC [Example 17a]
6.3
CCn1cc(CN2CCOCC2)c2c(OS(=O)(=O)C(C)C)cc(Cc3cnc(N)nc3N)cc21 [Example 10b]
110

Exam item: GET /values?readout=IC50&item= CCn1cc(CN2CCOCC2)c2c(OCC3CC3)cc(Cc3cnc(N)nc3N)cc21 [Example 10a]
Marked response: 180
